Tested on: Escherichia coli TOP10
Assay: shrunken log2 fold change of peptide-encoding DNA abundance (4.5 h post-induction vs induction); higher = less antimicrobial activity (less host growth inhibition)
Conditions: time post-induction: 4.5 h; library: site-saturation at positions 5, 18, 19, 20
Quick list: shrunken log2 fold change per entry.

>  <RESIDUE_SEQUENCE>
RRIRQRPPRLPRPRPRPIHDPRP

>  <SYSTEM_NAME>
Escherichia coli TOP10

>  <shrunken log2 fold change>
0.0242

$$$$
>  <RESIDUE_SEQUENCE>
RRIRLRPPRLPRPRPRPTRMPRP

>  <SYSTEM_NAME>
Escherichia coli TOP10

>  <shrunken log2 fold change>
0.513

$$$$
>  <RESIDUE_SEQUENCE>
RRIRERPPRLPRPRPRPSVDPRP

>  <SYSTEM_NAME>
Escherichia coli TOP10

>  <shrunken log2 fold change>
-0.318

$$$$
>  <RESIDUE_SEQUENCE>
RRIRGRPPRLPRPRPRPRSGPRP

>  <SYSTEM_NAME>
Escherichia coli TOP10

>  <shrunken log2 fold change>
0.83

$$$$
>  <RESIDUE_SEQUENCE>
RRIRPRPPRLPRPRPRPFVHPRP

>  <SYSTEM_NAME>
Escherichia coli TOP10

>  <shrunken log2 fold change>
-0.246

$$$$
>  <RESIDUE_SEQUENCE>
RRIRHRPPRLPRPRPRPPWAPRP

>  <SYSTEM_NAME>
Escherichia coli TOP10

>  <shrunken log2 fold change>
0.226

$$$$
>  <RESIDUE_SEQUENCE>
RRIRGRPPRLPRPRPRPMLQPRP

>  <SYSTEM_NAME>
Escherichia coli TOP10

>  <shrunken log2 fold change>
0.324

$$$$
>  <RESIDUE_SEQUENCE>
RRIRWRPPRLPRPRPRPIMYPRP

>  <SYSTEM_NAME>
Escherichia coli TOP10

>  <shrunken log2 fold change>
-0.0994

$$$$

Request: Value lookup for shrunken log2 fold change; key = RRIRNRPPRLPRPRPRPSGQPRP
Result: -0.188

Request: Again, but for RRIRSRPPRLPRPRPRPEYAPRP
Result: 0.496

Request: Moving on to RRIRWRPPRLPRPRPRPCWKPRP
Result: -0.00256

Request: And then RRIRSRPPRLPRPRPRPAFDPRP , what is it?
Result: 1.02

Request: What about this sequence? RRIRHRPPRLPRPRPRPYKEPRP
Result: -0.00664

Request: Now the same for RRIRVRPPRLPRPRPRPFKRPRP
Result: -0.165

Request: Also need RRIRRRPPRLPRPRPRPHIYPRP , thanks.
Result: -0.0628

###

Test system: Escherichia coli TOP10
Experiment: shrunken log2 fold change of peptide-encoding DNA abundance (4.5 h post-induction vs induction); higher = less antimicrobial activity (less host growth inhibition)
Conditions: time post-induction: 4.5 h; library: site-saturation at positions 5, 18, 19, 20
Listing of entries alongside the reported shrunken log2 fold change.
In your answer, state the number alone without any accompanying words.

In the examples that follow, each entry is paired with its recorded shrunken log2 fold change.
>  <RESIDUE_SEQUENCE>
RRIRNRPPRLPRPRPRPQMDPRP

>  <shrunken log2 fold change>
0.0304

$$$$
>  <RESIDUE_SEQUENCE>
RRIRCRPPRLPRPRPRPSHVPRP

>  <shrunken log2 fold change>
-0.387

$$$$

Request: Would you kindly share the measured shrunken log2 fold change for RRIRDRPPRLPRPRPRPATLPRP ?
Result: -0.146

Request: Okay, and RRIRKRPPRLPRPRPRPQWNPRP ?
Result: -0.105

Request: Now try RRIRDRPPRLPRPRPRPPDLPRP .
Result: 0.201

Request: Next sequence: RRIRFRPPRLPRPRPRPENIPRP
Result: 0.0737

Request: Same thing, different sequence: RRIRERPPRLPRPRPRPARCPRP
Result: 0.114

Request: What would you report for RRIRRRPPRLPRPRPRPPVRPRP ?
Result: 0.437

Request: RRIRSRPPRLPRPRPRPILGPRP
Result: -0.016

Request: RRIRLRPPRLPRPRPRPEEAPRP ?
Result: 0.495

Request: Field entry: RRIRGRPPRLPRPRPRPVEMPRP
Result: 0.556

Request: Moving on to the next sequence: RRIRSRPPRLPRPRPRPCSIPRP
Result: -0.153

Request: Another sequence: RRIRMRPPRLPRPRPRPVNHPRP
Result: -0.327

Request: Same thing, different sequence: RRIRLRPPRLPRPRPRPRVSPRP
Result: -0.0787

Request: RRIRKRPPRLPRPRPRPYHIPRP
Result: -0.323

Request: Now consider RRIRLRPPRLPRPRPRPAVEPRP .
Result: -0.0223

Request: Can you handle RRIRARPPRLPRPRPRPATPPRP next?
Result: 0.894

Request: Now the sequence RRIRARPPRLPRPRPRPGEEPRP
Result: 0.999

###

Tested on: Escherichia coli TOP10
Test: shrunken log2 fold change of peptide-encoding DNA abundance (4.5 h post-induction vs induction); higher = less antimicrobial activity (less host growth inhibition)
Settings: time post-induction: 4.5 h; library: site-saturation at positions 5, 18, 19, 20
Returns 1.0 if the recorded shrunken log2 fold change is greater than or equal to -0.07, and 0.0 otherwise.

>  <RESIDUE_SEQUENCE>
RRIRRRPPRLPRPRPRPQAFPRP

>  <SYSTEM_NAME>
Escherichia coli TOP10

>  <CATEGORY_LABEL>
1.0

$$$$

Request: Could you tell me if the measured shrunken log2 fold change of RRIRMRPPRLPRPRPRPHRWPRP reaches -0.07 or more?
Result: 1.0

Request: RRIRIRPPRLPRPRPRPEDGPRP ?
Result: 1.0

Request: Next up: RRIRDRPPRLPRPRPRPLHDPRP
Result: 1.0

Request: Input RRIRTRPPRLPRPRPRPKEKPRP
Result: 1.0

Request: Please do the same for RRIRCRPPRLPRPRPRPVTDPRP as well.
Result: 1.0

Request: Try this sequence next: RRIRQRPPRLPRPRPRPGEKPRP
Result: 1.0

Request: Follow-up item: RRIRERPPRLPRPRPRPNCRPRP
Result: 0.0

Request: Also RRIRYRPPRLPRPRPRPFDMPRP , if possible.
Result: 0.0

Request: Thanks! And RRIRLRPPRLPRPRPRPPCWPRP ?
Result: 1.0

Request: Lookup RRIRYRPPRLPRPRPRPFTHPRP
Result: 0.0

Request: What about RRIRERPPRLPRPRPRPSGMPRP ?
Result: 0.0

Request: Can you handle RRIRERPPRLPRPRPRPTTYPRP next?
Result: 0.0

Request: Now try RRIRKRPPRLPRPRPRPDMRPRP .
Result: 1.0

Request: And for RRIRGRPPRLPRPRPRPGTKPRP ?
Result: 1.0

Request: And then RRIRYRPPRLPRPRPRPTFPPRP , what is it?
Result: 0.0

Request: And the next one, RRIRYRPPRLPRPRPRPYRGPRP ?
Result: 0.0

Request: Quick one: RRIRFRPPRLPRPRPRPKPHPRP
Result: 1.0

Request: And the next one, RRIRQRPPRLPRPRPRPERRPRP ?
Result: 1.0

Request: Also check RRIRMRPPRLPRPRPRPWSAPRP
Result: 1.0

###

Entries and their shrunken log2 fold change values follow.
System: Escherichia coli TOP10
Experiment: shrunken log2 fold change of peptide-encoding DNA abundance (4.5 h post-induction vs induction); higher = less antimicrobial activity (less host growth inhibition)
Details: time post-induction: 4.5 h; library: site-saturation at positions 5, 18, 19, 20

>  <RESIDUE_SEQUENCE>
RRIRSRPPRLPRPRPRPWEAPRP

>  <shrunken log2 fold change>
0.019

$$$$
>  <RESIDUE_SEQUENCE>
RRIRVRPPRLPRPRPRPADTPRP

>  <shrunken log2 fold change>
-0.32

$$$$
>  <RESIDUE_SEQUENCE>
RRIRSRPPRLPRPRPRPTMAPRP

>  <shrunken log2 fold change>
0.173

$$$$
>  <RESIDUE_SEQUENCE>
RRIRWRPPRLPRPRPRPDKTPRP

>  <shrunken log2 fold change>
-0.0185

$$$$

--- query ---
Request: Find shrunken log2 fold change (Escherichia coli TOP10) for the entry RRIRYRPPRLPRPRPRPIFDPRP
Result: -0.737

###

System: Escherichia coli TOP10;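 further: peptides expressed intracellularly from a pBAD plasmid library in pooled LB shake-flask culture, induced with 0.3% L-arabinose, DNA abundance read by NGS, three biological replicates, DESeq2 with apeglm shrinkage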
Assay: shrunken log2 fold change of peptide-encoding DNA abundance (4.5 h post-induction vs induction); higher = less antimicrobial activity (less host growth inhibition)
Settings: time post-induction: 4.5 h; library: site-saturation at positions 5, 18, 19, 20
Entry flag: 1 if shrunken log2 fold change reaches -0.02; 0 if it does not.

>  <RESIDUE_SEQUENCE>
RRIRQRPPRLPRPRPRPCTIPRP

>  <CATEGORY_LABEL>
1

$$$$

Request: Dear colleague, could you confirm whether RRIRMRPPRLPRPRPRPGDWPRP has shrunken log2 fold change at or above -0.02?
Result: 1

Request: Param item: RRIRNRPPRLPRPRPRPCCSPRP
Result: 0

Request: And for RRIRYRPPRLPRPRPRPSWMPRP ?
Result: 0
